tested on: SGC-7901; assay: Antitumor activity against SGC7901 cell line at 10 umol/L by SRB method; type: functional; conditions: Homo sapiens
Answer 0 (no) if inhibition at 10 µM is under 40%, and 1 (yes) if it is 40% or more.

[[record]]
molecule_smiles = "C/C(=N/N=C(\\S)Nc1ccc([N+](=O)[O-])cc1)c1cccs1"
qualitative_label = "0 (no)"

[[record]]
molecule_smiles = "C/C(=N/N=C(\\S)Nc1ccccc1)c1cccs1"
qualitative_label = "0 (no)"

[[record]]
molecule_smiles = "C/C(=N/N=C(\\S)Nc1ccc(C)cc1)c1cccs1"
qualitative_label = "0 (no)"

[[record]]
molecule_smiles = "C/C(=N/N=C(\\S)N1CCN(c2ccccn2)CC1)c1ncccn1"
qualitative_label = "1 (yes)"

[[record]]
molecule_smiles = "C/C(=N/N=C(\\S)N1CCN(c2ccccn2)CC1)c1nccs1"
qualitative_label = "1 (yes)"

[[record]]
molecule_smiles = "C/C(=N/N=C(\\S)Nc1cccc2ccccc12)c1cccs1"
qualitative_label = "0 (no)"

[[record]]
molecule_smiles = "COc1ccc(N/C(S)=N/N=C(/C)c2cccs2)cc1"
qualitative_label = "0 (no)"

[[record]]
molecule_smiles = "C/C(=N/N=C(\\S)Nc1cc(Cl)cc(Cl)c1)c1cccs1"
qualitative_label = "0 (no)"

[[record]]
molecule_smiles = "C/C(=N/N=C(\\S)Nc1ccccc1C)c1cccs1"
qualitative_label = "1 (yes)"

[[record]]
molecule_smiles = "C/C(=N/N=C(\\S)Nc1ccc(Cl)cc1)c1cccs1"
qualitative_label = "0 (no)"

[[record]]
molecule_smiles = "C/C(=N/N=C(\\S)N1CCN(c2ccccn2)CC1)c1cccs1"
qualitative_label = "1 (yes)"


###

test system: A549; experiment: Antitumor activity against A549 cell line at 10 umol/L by SRB method; format: functional; conditions: Homo sapiens
// label = YES if inhibition at 10 µM is not less than 20%, otherwise NO

[[record]]
molecule_smiles = "C/C(=N/N=C(\\S)N1CCN(c2ccccn2)CC1)c1ccccc1"
qualitative_label = "NO"

[[record]]
molecule_smiles = "C/C(=N/N=C(\\S)N1CCN(c2ccccn2)CC1)c1nccs1"
qualitative_label = "NO"

[[record]]
molecule_smiles = "C/C(=N/N=C(\\S)N1CCN(c2ccccn2)CC1)c1ccc(Cl)cc1"
qualitative_label = "NO"

[[record]]
molecule_smiles = "C/C(=N/N=C(\\S)N1CCN(c2ccccn2)CC1)c1ccc(O)cc1"
qualitative_label = "NO"

[[record]]
molecule_smiles = "C/C(=N/N=C(\\S)N1CCN(c2ccccn2)CC1)c1ccc([N+](=O)[O-])cc1"
qualitative_label = "NO"

[[record]]
molecule_smiles = "S=C(N/N=C\\c1ccccc1)N1CCN(c2ccccn2)CC1"
qualitative_label = "NO"

[[record]]
molecule_smiles = "C/C(=N/N=C(\\S)N1CCN(C2CCCCCC2)CC1)c1ccccn1"
qualitative_label = "YES"

[[record]]
molecule_smiles = "C/C(=N/N=C(\\S)N1CCN(c2ccccn2)CC1)c1ccco1"
qualitative_label = "YES"

[[record]]
molecule_smiles = "C/C(=N/N=C(\\S)N1CCN(c2ccccn2)CC1)c1ncccn1"
qualitative_label = "YES"

[[record]]
molecule_smiles = "CCn1cc(C(=O)O)c(=O)c2cc(F)c(N3CCN(/C(S)=N/N=C(/C)c4ccccn4)CC3)cc21"
qualitative_label = "NO"

[[record]]
molecule_smiles = "C/C(=N/N=C(\\S)N1CCN(c2ccccn2)CC1)c1ccc(N)cc1"
qualitative_label = "YES"


###

Entries annotated with measured inhibition at 10 µM
system: A549; test: Antitumor activity against A549 cell line at 10 umol/L by SRB method; format: functional; settings: Homo sapiens
ATTRIBUTE_MEASURED: inhibition at 10 µM

[[record]]
molecule_smiles = "C/C(=N/NC(=S)N1CCN(c2ccccn2)CC1)c1ccccn1"
result = "100%"

[[record]]
molecule_smiles = "CCn1cc(C(=O)O)c(=O)c2cc(F)c(N3CCN(/C(S)=N/N=C(/C)c4ccccc4)CC3)cc21"
result = "63.9%"

[[record]]
molecule_smiles = "CCn1cc(C(=O)O)c(=O)c2cc(F)c(N3CCN(/C(S)=N/N=C\\c4ccccc4)CC3)cc21"
result = "4.1%"

[[record]]
molecule_smiles = "COc1ccc(/C(C)=N\\N=C(/S)N2CCN(c3ccccn3)CC2)cc1"
result = "0.8%"

[[record]]
molecule_smiles = "C/C(=N/N=C(\\S)N1CCN(c2ccccn2)CC1)c1ccc(C)cc1"
result = "0%"


###

Listed below: inhibition at 0.1 µM values for each entry.
system: A549; test: Antitumor activity against A549 cell line at 0.1 umol/L by SRB method; type: functional; conditions: Homo sapiens
ATTRIBUTE_MEASURED: inhibition at 0.1 µM (%)

[[record]]
molecule_smiles = "C/C(=N/N=C(\\S)N1CCN(c2ccccn2)CC1)c1ccc(N)cc1"
numeric_readout = 0

[[record]]
molecule_smiles = "S=C(N/N=C\\c1ccccc1)N1CCN(c2ccccn2)CC1"
numeric_readout = 0.8

[[record]]
molecule_smiles = "C/C(=N/NC(=S)N1CCN(c2ccccn2)CC1)c1ccccn1"
numeric_readout = 24.6

[[record]]
molecule_smiles = "CCn1cc(C(=O)O)c(=O)c2cc(F)c(N3CCN(/C(S)=N/N=C(/C)c4ccccn4)CC3)cc21"
numeric_readout = 0

[[record]]
molecule_smiles = "C/C(=N/N=C(\\S)N1CCN(c2ccccn2)CC1)c1ccc([N+](=O)[O-])cc1"
numeric_readout = 0

[[record]]
molecule_smiles = "C/C(=N/N=C(\\S)N1CCN(c2ccccn2)CC1)c1ccco1"
numeric_readout = 0

[[record]]
molecule_smiles = "CCn1cc(C(=O)O)c(=O)c2cc(F)c(N3CCN(/C(S)=N/N=C(/C)c4ccccc4)CC3)cc21"
numeric_readout = 0

[[record]]
molecule_smiles = "C/C(=N/N=C(\\S)N1CCN(c2ccccn2)CC1)c1nccs1"
numeric_readout = 15.6

[[record]]
molecule_smiles = "CCn1cc(C(=O)O)c(=O)c2cc(F)c(N3CCN(/C(S)=N/N=C\\c4ccccc4)CC3)cc21"
numeric_readout = 0

[[record]]
molecule_smiles = "C/C(=N/N=C(\\S)N1CCN(c2ccccn2)CC1)c1ccc(O)cc1"
numeric_readout = 0

[[record]]
molecule_smiles = "COc1ccc(/C(C)=N\\N=C(/S)N2CCN(c3ccccn3)CC2)cc1"
numeric_readout = 3.3

[[record]]
molecule_smiles = "C/C(=N/N=C(\\S)N1CCN(c2ccccn2)CC1)c1ccc(Cl)cc1"
numeric_readout = 0.8

[[record]]
molecule_smiles = "C/C(=N/N=C(\\S)N1CCN(c2ccccn2)CC1)c1ccccc1"
numeric_readout = 0

[[record]]
molecule_smiles = "C/C(=N/N=C(\\S)N1CCN(c2ccccn2)CC1)c1ncccn1"
numeric_readout = 12.6

[[record]]
molecule_smiles = "C/C(=N/N=C(\\S)N1CCN(c2ccccn2)CC1)c1ccc(C)cc1"
numeric_readout = 0

[[record]]
molecule_smiles = "C/C(=N/N=C(\\S)N1CCN(C2CCCCCC2)CC1)c1ccccn1"
numeric_readout = 0

